target-system: T1, human LIV-1 (human, UniProt Q13433 29-755)
T1 sequence (looked up): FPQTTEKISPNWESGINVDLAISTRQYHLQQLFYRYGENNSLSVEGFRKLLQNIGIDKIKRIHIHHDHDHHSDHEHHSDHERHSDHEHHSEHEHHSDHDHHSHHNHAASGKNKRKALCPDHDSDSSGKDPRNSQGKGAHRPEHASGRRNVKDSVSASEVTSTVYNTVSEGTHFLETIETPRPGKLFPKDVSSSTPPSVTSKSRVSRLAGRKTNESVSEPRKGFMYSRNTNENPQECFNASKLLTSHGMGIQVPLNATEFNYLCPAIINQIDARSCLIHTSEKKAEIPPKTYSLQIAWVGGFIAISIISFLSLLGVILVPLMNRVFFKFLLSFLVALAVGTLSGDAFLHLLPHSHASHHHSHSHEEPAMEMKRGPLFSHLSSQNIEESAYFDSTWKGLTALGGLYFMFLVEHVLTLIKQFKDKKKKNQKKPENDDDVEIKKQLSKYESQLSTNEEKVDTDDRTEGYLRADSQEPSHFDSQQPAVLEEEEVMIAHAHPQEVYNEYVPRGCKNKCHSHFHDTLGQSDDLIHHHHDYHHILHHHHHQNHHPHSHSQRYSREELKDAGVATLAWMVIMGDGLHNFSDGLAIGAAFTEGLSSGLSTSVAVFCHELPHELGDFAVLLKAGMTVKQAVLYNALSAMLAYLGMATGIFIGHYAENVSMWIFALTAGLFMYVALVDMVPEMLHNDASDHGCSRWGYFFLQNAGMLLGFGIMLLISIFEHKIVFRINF
experiment-notes: cell-based or functional assay
metric-name: ADCC reporter Top (RFU)
Enter your answer as a number in RFU; do not include the unit.

INSERT INTO assay_data (binder, metric_name, quantitative_result) VALUES
  ('135C6E7 (antibody, V domains shown, Tested as chimeric antibody) VH: EVQLVESGGGLVQPKGSLKLSCAASGFTFNTYAMNWVRQAPGKGLEWVARIRSKYNSYATYYADSVKDRFTISRDDSQSILYLQMNNLKTEDTAMYYCVRHEDYDGGFAYWGQGTLVTVSA VL: DIVMSQSPSSLAVSVGEKVTMSCKSSQSLFKSRTRKNYLAWYQQKPGQSPKLLIYWASTRESGVPDRFTGSGSGTDFTLTISSVQAEDLAVYYCKESYNLMYTFGGGTKLEIK', 'ADCC reporter Top (RFU)', 53100);

Would you kindly look at the next entry?
Query: Recorded ADCC reporter Top (RFU) for 5D6B10 (antibody, V domains shown, Tested as chimeric antibody) VH: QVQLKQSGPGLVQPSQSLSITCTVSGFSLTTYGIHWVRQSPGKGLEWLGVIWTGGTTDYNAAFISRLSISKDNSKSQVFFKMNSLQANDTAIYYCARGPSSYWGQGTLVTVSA VL: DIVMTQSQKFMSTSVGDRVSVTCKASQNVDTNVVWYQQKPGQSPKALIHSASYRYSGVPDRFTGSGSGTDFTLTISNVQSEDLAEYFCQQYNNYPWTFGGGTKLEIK , please?
Result: 121000
